The reported measurements were obtained from PubChem BioAssay (NCI).

experiment: NCI Yeast Anticancer Drug Screen. Data for the bub3 strain (AID 167); conditions: S. cerevisiae bub3 mutant strain, at 50.0 µM
About 79,000 compounds went through this panel and 15% of them were active in at least one assay; those are over-represented in the sample as a whole. Active and inactive are the calls of the source. No stated cut-off is given here; in the data, active means growth inhibition above about 70%; inactive means the rest.
Possible outcomes: active, inactive

{"Compound": "COc1ccccc1C1C(Cl)C(=O)N1n1cnc2ccccc2c1=O (stereo unspecified)", "Answer Label": "active"}
{"Compound": "Cc1nc2c(cnn2C)cc1CCc1ccccc1", "Answer Label": "active"}
{"Compound": "O=S(Nc1ccccc1Br)c1ccccc1 (stereo unspecified)", "Answer Label": "inactive"}
{"Compound": "O=C1C(C(O)(C(F)(F)Cl)C(F)(F)Cl)CCCC1C(O)(C(F)(F)Cl)C(F)(F)Cl (stereo unspecified)", "Answer Label": "active"}
{"Compound": "Nc1ccccc1C(=O)NCCc1c[nH]c2ccccc12", "Answer Label": "inactive"}
{"Compound": "COC(=O)c1cc(-c2ccc(C)cc2)c2c(=O)n(-c3ccccc3)[nH]c2n1", "Answer Label": "active"}
